experiment: pKa value for amino group in the compound; format: physicochemical
experimentalEndpoint: pKa
Response field accepts a number only; no unit should be typed.

Given the entry `OCCCCCNCc1c2ccccc2c(CNCCCCCO)c2ccccc12` , report its measured pKa. 8

---

assay: pKa value for amino group in the compound; format: physicochemical; details: read-out: pKa4
experimentalEndpoint: pKa

Before answering, review these 3 worked examples.
| compound | pKa |
| --- | --- |
| CN(C)CCNCc1c2ccccc2c(CNCCN(C)C)c2ccccc12 | 9.4 |
| CN(C)CCN(C)Cc1c2ccccc2c(CN(C)CCN(C)C)c2ccccc12 | 9.45 |
| CCN1CCCC(NCc2c3ccccc3c(CNC3CCCN(CC)C3)c3ccccc23)C1 (centres undefined) | 9.15 |

Attention now shifts to the item below.
Given the entry `c1ccc2c(CNCCN3CCOCC3)c3ccccc3c(CNCCN3CCOCC3)c2c1` , report its measured pKa. 8.5
